test system: 695427-040-R-J1-PDC complex spheroid viability; assay: Anticancer human tumor 695427-040-R-J1-PDC patient-derived colon adenocarcinoma cell line growth inhibition [POLQ]; settings: second compound 10 µM; first compound 0.001 µM; stronger effect = lower value
quantity-kind: viability, T/C

{"compound": "CC[C@@]1(O)C(=O)OCc2c1cc1n(c2=O)Cc2cc3c(CN(C)C)c(O)ccc3nc2-1 + Nc1ccc(C#CCN(C(=O)Cc2ncc(C(F)(F)F)cc2C(F)(F)F)c2ccc(F)cc2)nn1", "assayed-target": "695427-040-R-J1-PDC complex spheroid viability", "observed-value": "98.3%"}
{"compound": "Cn1ncnc1[C@H]1c2n[nH]c(=O)c3cc(F)cc(c23)N[C@@H]1c1ccc(F)cc1 + Cc1cccc(N(C)C(=O)C2C(O)CCN2c2nc(C)cc(C(F)(F)F)c2C#N)c1", "assayed-target": "695427-040-R-J1-PDC complex spheroid viability", "observed-value": "87.4%"}

Data request: Requested field: viability, T/C. Item: CC[C@@]1(O)C(=O)OCc2c1cc1n(c2=O)Cc2cc3c(CN(C)C)c(O)ccc3nc2-1 + Cc1cccc(N(C)C(=O)C2C(O)CCN2c2nc(C)cc(C(F)(F)F)c2C#N)c1
Data returned: 89.4%

====

viability, T/C by entry:
system: 695427-040-R-J1-PDC complex spheroid viability; assay: Anticancer human tumor 695427-040-R-J1-PDC cell line growth inhibition [POLQ]; settings: second compound 10 µM; first compound 1 µM; stronger effect = lower value;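 further: spheroids exposed to compounds for seven days; 100% = DMSO vehicle control viability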
Answer format: numeric, % implied, no suffix.

# example entries with known answers
{"compound": "CC(C)n1c(=O)n(C)c2cnc3cc(F)c(-c4ccc(OCCCN5CCCCC5)nc4)cc3c21 + Nc1ccc(C#CCN(C(=O)Cc2ncc(C(F)(F)F)cc2C(F)(F)F)c2ccc(F)cc2)nn1", "viability, T/C / %": 108}
{"compound": "COc1cccc2c1C(=O)c1c(O)c3c(c(O)c1C2=O)CC(O)(C(=O)CO)CC3OC1CC(N)C(O)C(C)O1 (stereo unspecified) + Cc1cccc(N(C)C(=O)C2C(O)CCN2c2nc(C)cc(C(F)(F)F)c2C#N)c1", "viability, T/C / %": 57.7}
{"compound": "O=C(c1cc(Cc2n[nH]c(=O)c3ccccc23)ccc1F)N1CCN(C(=O)C2CC2)CC1 + COC1C(OC(N)=O)C(O)C(Oc2ccc3c(O)c(NC(=O)c4ccc(O)c(CC=C(C)C)c4)c(=O)oc3c2C)OC1(C)C", "viability, T/C / %": 107}
{"compound": "Nc1ccn(C2OC(CO)C(O)C2(F)F)c(=O)n1 (stereo unspecified) + Cc1cccc(N(C)C(=O)C2C(O)CCN2c2nc(C)cc(C(F)(F)F)c2C#N)c1", "viability, T/C / %": 72.5}

Data request: Requested field: viability, T/C. Item: CNCc1ccc(-c2[nH]c3cc(F)cc4c3c2CCNC4=O)cc1 + Nc1ccc(C#CCN(C(=O)Cc2ncc(C(F)(F)F)cc2C(F)(F)F)c2ccc(F)cc2)nn1
Data returned: 105

Data request: Likewise for CC(C)n1c(=O)n(C)c2cnc3cc(F)c(-c4ccc(OCCCN5CCCCC5)nc4)cc3c21 + Cc1cccc(N(C)C(=O)C2C(O)CCN2c2nc(C)cc(C(F)(F)F)c2C#N)c1 ?
Data returned: 101
